System tested: AHNAK2, Q8IVF2
Sequence (Q8IVF2 108-193): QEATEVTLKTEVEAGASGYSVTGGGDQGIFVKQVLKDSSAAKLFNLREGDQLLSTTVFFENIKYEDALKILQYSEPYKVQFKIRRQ
Test protocol: holdup assay
Design: key: below the threshold = too weak to quantify, mostly under pKd 3.1 to 4
Cond: plain residues with an end cap or a label only (N-terminal biotin on a linker: ttds)
Metric name: pKd

# Binder, Experimental value
rows = [
    ("SSRTRRETQL [HPV16-E6, P03126]", "below the threshold"),
    ("SVWLRKETRV [CYSLTR2, Q9NS75]", "below the threshold"),
    ("RSLEEEESQL [GRASP, Q7Z6J2]", 4.3),
    ("STLTIFETAL [ABCC4, O15439]", "below the threshold"),
    ("QSARYRDTEL [TJP2, Q9UDY2]", "below the threshold"),
    ("SRPQRTQTQV [HPV67-E6, A4U7F2]", "below the threshold"),
    ("PKTPPTDTSV [KIR3DL3, Q8N743]", "below the threshold"),
]
